# Organism: Homo sapiens
# test summary: Compound was tested for permeability in Caco-2 cells by HPLC method
# Assay type: ADME, cell-based
# Permeability >= 3 ×10⁻⁶ cm/s gives 1.0, anything below gives 0.0

Asked: Could you tell me if the measured Permeability of O=C(Nc1cc(C(F)(F)F)cc(C(F)(F)F)c1)c1cnc(Cl)nc1 reaches 3 ×10⁻⁶ cm/s or more?
Given back: 1.0

Asked: Could you tell me if the measured Permeability of O=C(Nc1cc(C(F)(F)F)cc(C(F)(F)F)c1)c1cnc(Cl)nc1-c1cccs1 reaches 3 ×10⁻⁶ cm/s or more?
Given back: 0.0

Asked: Could you tell me if the measured Permeability of Cc1nc(Cl)ncc1C(=O)Nc1cc(C(F)(F)F)cc(C(F)(F)F)c1 reaches 3 ×10⁻⁶ cm/s or more?
Given back: 1.0

Asked: Could you tell me if the measured Permeability of O=C(Nc1cc(C(F)(F)F)cc(C(F)(F)F)c1)c1cnc(Cl)nc1-c1ccccc1 reaches 3 ×10⁻⁶ cm/s or more?
Given back: 0.0

Asked: Could you tell me if the measured Permeability of O=C(Nc1cc(C(F)(F)F)cc(C(F)(F)F)c1)c1cnc(F)nc1C(F)(F)F reaches 3 ×10⁻⁶ cm/s or more?
Given back: 0.0

Asked: Could you tell me if the measured Permeability of CCc1nc(Cl)ncc1C(=O)Nc1cc(C(F)(F)F)cc(C(F)(F)F)c1 reaches 3 ×10⁻⁶ cm/s or more?
Given back: 1.0

Asked: Could you tell me if the measured Permeability of CCCc1nc(Cl)ncc1C(=O)Nc1cc(C(F)(F)F)cc(C(F)(F)F)c1 reaches 3 ×10⁻⁶ cm/s or more?
Given back: 1.0

Asked: Could you tell me if the measured Permeability of O=C(Nc1cc(C(F)(F)F)cc(C(F)(F)F)c1)c1cnc(Cl)nc1C(F)(F)C(F)(F)F reaches 3 ×10⁻⁶ cm/s or more?
Given back: 0.0

Asked: Could you tell me if the measured Permeability of O=C(Nc1cc(C(F)(F)F)cc(C(F)(F)F)c1)c1cnc(Cl)nc1C(F)(F)F reaches 3 ×10⁻⁶ cm/s or more?
Given back: 0.0

Asked: Could you tell me if the measured Permeability of O=C(Nc1cc(C(F)(F)F)cc(C(F)(F)F)c1)c1cnc(Cl)nc1Cl reaches 3 ×10⁻⁶ cm/s or more?
Given back: 1.0
